test system: MS2 coat protein; assay: apparent KD of MS2 coat protein; higher = weaker reporter binding; conditions: Eterna round: R107; input ligand: arginine 13.2 mM
VALUE TYPE: apparent KD of MS2 coat protein (nM)
Give the quantity in nM, number only.

GCACGACAUGAGGAUCACCCAUGUGCAGAUACCAGUAAUGUAUGUUACCCUUGGCAGCUGAGUAGGUCUGGAGGGCUAUAGGUAA [Same State Theophylline A GF12]    10.6
AAUAUAUAGACGGCCGCCACUGGAAUUAAUACAUGAGGAUCACCCAUGUGAAGAGGAUAAUAACACAGGACCGGGUCUUCAUGUA [SS Tryp B Tesla 1.2]    68.5
GAUCCUCAUACGGAUACCAGCGAAUAACAUGAGGAUCACCCAUGUAAUAAAGAAAAUAAAUGCCCUUGGCAGCCGAAUAGAUAGU [Same State Theophylline B GF 1]    36.2
UCCUCCUCCGCAAGGAGGAGGAGUUGCGAUACCAGCACGGUAACGUGCCCUUGGCAGCGCACAUGAGGAUCACCCAUGUCAUGUU [#1 Exclusion - Theophylline A Attempt #11 (HarryS)]    15
GGGCCUAUCUGAAGGAGCGACAUGAGGAUCACCCAUGUCUCCCGUUAUGGGAGUUCUUUAGGUCAGGUAGGUCGCAGGUAGGGCC [#1 Exclusion - Arginine B Attempt #5 (Inspired by Omei)]    12.2

// below: apparent KD of MS2 coat protein requested for another sequence
Query string: Item: UUUGAUAGGACAGAUACCAGCGUGUUAUAAAACAUGAGGAUCACCCAUGUAGUGAUCAAGCGCCCUUGGCAGCUGGUUUGUUAGG [7.J] Test system: MS2 coat protein Read-out: apparent KD of MS2 coat protein Value: ?
Result string: 73.5

Source: the supplement of paper PMC9170038
